target: GSPT1 (Homo sapiens, UniProt P15170+Q96SW2); assay: Cellular degradation assay, eGFP-GSPT1 fusion with mCherry reporter in Flp-In 293 cells; assay type: cell-based; set-up: expressed in transfected cells; host or cells: Flp-In 293; settings: compound concentration 2.00E−07; 5 h incubation; n=1
Sequence (P15170 whole entry, the tested form may be a part): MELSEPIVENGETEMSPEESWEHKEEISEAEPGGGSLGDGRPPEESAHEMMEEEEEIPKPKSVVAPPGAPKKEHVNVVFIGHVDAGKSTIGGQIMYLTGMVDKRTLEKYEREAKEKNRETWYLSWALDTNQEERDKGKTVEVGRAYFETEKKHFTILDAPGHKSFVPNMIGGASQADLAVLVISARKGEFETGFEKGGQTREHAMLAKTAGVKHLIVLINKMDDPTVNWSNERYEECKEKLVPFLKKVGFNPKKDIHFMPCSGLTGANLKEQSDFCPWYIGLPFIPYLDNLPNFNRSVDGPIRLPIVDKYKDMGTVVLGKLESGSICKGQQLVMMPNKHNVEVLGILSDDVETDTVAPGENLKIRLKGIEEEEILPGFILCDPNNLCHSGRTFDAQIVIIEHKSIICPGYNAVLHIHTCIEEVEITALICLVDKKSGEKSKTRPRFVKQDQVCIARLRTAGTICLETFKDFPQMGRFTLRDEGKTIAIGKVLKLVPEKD
Sequence (Q96SW2 whole entry, the tested form may be a part): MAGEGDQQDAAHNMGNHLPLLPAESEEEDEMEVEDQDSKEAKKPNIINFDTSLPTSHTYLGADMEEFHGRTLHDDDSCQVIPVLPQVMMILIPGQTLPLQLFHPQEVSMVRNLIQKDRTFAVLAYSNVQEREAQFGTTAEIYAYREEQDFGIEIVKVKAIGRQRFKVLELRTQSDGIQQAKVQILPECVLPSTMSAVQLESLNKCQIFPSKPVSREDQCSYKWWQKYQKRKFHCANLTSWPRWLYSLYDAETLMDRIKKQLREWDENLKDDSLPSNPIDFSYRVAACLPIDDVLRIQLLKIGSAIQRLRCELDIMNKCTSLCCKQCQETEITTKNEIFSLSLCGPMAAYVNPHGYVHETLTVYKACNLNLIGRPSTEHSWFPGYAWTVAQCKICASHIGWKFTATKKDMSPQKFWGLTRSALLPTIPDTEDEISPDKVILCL
Sequence (Q16531 whole entry partner, the tested form may be a part): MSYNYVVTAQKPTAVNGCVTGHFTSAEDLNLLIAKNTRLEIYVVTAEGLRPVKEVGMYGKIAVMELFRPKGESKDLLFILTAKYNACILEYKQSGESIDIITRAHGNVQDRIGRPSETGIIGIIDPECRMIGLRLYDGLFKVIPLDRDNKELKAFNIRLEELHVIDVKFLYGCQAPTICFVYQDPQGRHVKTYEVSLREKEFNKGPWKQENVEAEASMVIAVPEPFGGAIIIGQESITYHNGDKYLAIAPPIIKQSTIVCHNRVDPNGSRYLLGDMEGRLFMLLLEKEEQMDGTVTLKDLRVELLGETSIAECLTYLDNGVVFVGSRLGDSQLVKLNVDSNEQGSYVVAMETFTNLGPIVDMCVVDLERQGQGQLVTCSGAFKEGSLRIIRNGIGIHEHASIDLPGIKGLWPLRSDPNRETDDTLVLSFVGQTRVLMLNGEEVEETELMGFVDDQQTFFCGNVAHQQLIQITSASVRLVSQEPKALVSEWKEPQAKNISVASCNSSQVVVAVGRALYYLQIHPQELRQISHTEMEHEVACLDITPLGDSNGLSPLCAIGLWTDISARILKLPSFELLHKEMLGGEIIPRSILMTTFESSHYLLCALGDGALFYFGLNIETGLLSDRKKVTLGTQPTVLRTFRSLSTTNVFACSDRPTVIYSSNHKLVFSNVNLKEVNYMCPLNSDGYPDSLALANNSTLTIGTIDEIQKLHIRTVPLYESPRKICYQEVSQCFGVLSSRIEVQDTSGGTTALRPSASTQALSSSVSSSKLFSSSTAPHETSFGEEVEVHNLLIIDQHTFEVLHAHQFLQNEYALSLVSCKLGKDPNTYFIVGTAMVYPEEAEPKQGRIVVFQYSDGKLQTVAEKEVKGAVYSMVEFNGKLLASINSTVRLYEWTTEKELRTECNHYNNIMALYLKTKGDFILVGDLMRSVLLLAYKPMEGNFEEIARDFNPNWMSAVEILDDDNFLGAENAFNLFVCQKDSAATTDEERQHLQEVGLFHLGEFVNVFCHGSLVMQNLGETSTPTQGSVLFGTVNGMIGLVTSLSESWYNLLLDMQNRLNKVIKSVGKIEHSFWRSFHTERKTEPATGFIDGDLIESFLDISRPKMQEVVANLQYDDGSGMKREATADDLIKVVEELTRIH
measure_name: GSPT1 GFP/RFP Relative Abundance
Please reply with the value in numeric form only.

Item: Cc1ccc(NC(=O)NC(C)c2cccc(NC3=CC(=O)N(C4CCC(=O)NC4=O)C3=O)c2)cc1Cl (stereo not drawn) [Compound 54] | GSPT1 GFP/RFP Relative Abundance: 0.567

Item: Cc1cc(NC2=CC(=O)N(C3CCC(=O)NC3=O)C2=O)ccc1Cl (stereo not drawn) [Compound 4] | GSPT1 GFP/RFP Relative Abundance: 0.750

Item: Cc1ccc(NC(=O)Nc2ccc(NC3=CC(=O)N(C4CCC(=O)NC4=O)C3=O)cc2)cc1Cl (stereo not drawn) [Compound 42] | GSPT1 GFP/RFP Relative Abundance: 0.215

Item: O=C(O)CCCCNC1=CC(=O)N(C2CCC(=O)NC2=O)C1=O (stereo not drawn) [Compound 22] | GSPT1 GFP/RFP Relative Abundance: 0.745

Item: O=C1CCC(N2C(=O)C=C(Nc3ccc4cn[nH]c4c3)C2=O)C(=O)N1 (stereo not drawn) [Compound 32] | GSPT1 GFP/RFP Relative Abundance: 0.970

Item: Cc1ccc(NC2=CC(=O)N(C3CCC(=O)NC3=O)C2=O)cc1C (stereo not drawn) [Compound 24] | GSPT1 GFP/RFP Relative Abundance: 1.218

Item: O=C1CCC(N2C(=O)C=C(Nc3nccs3)C2=O)C(=O)N1 (stereo not drawn) [Compound 19] | GSPT1 GFP/RFP Relative Abundance: 0.953

Item: CN(C1=CC(=O)N(C2CCC(=O)NC2=O)C1=O)c1ccccc1 (stereo not drawn) [Compound 28] | GSPT1 GFP/RFP Relative Abundance: 0.805

Item: CCOC(=O)c1cccc(NC2=CC(=O)N(C3CCC(=O)NC3=O)C2=O)c1 (stereo not drawn) [Compound 30] | GSPT1 GFP/RFP Relative Abundance: 1.192

Item: COC(=O)CNC1=CC(=O)N(C2CCC(=O)NC2=O)C1=O (stereo not drawn) [Compound 13] | GSPT1 GFP/RFP Relative Abundance: 1.004

Item: Cc1ccc(NC(=O)NCc2ccc(NC3=CC(=O)N(C4CCC(=O)NC4=O)C3=O)cc2)cc1Cl (stereo not drawn) [Compound 46] | GSPT1 GFP/RFP Relative Abundance: 0.076

Item: Cc1ccc(NC(=O)N(C)Cc2cccc(NC3=CC(=O)N(C4CCC(=O)NC4=O)C3=O)c2)cc1Cl (stereo not drawn) [Compound 52] | GSPT1 GFP/RFP Relative Abundance: 0.787

Item: CN(C)C(=O)c1ccc(NC2=CC(=O)N(C3CCC(=O)NC3=O)C2=O)cc1 (stereo not drawn) [Compound 34] | GSPT1 GFP/RFP Relative Abundance: 0.878

Item: Cc1ccc(NC(=O)NCc2cccc(NC3=CC(=O)N(C4CCC(=O)NC4=O)C3=O)c2)cc1Cl (stereo not drawn) [Compound 44] | GSPT1 GFP/RFP Relative Abundance: 0.744

Item: CN(C)C(=O)Cc1cccc(NC2=CC(=O)N(C3CCC(=O)NC3=O)C2=O)c1 (stereo not drawn) [Compound 35] | GSPT1 GFP/RFP Relative Abundance: 0.938

Item: Cc1ccc(NC(=O)Nc2cccc(NC3=CC(=O)N(C4CCC(=O)NC4=O)C3=O)c2)cc1Cl (stereo not drawn) [Compound 43] | GSPT1 GFP/RFP Relative Abundance: 0.087

Item: Cc1ccc(NC2=CC(=O)N(C3CCC(=O)NC3=O)C2=O)cc1C#N (stereo not drawn) [Compound 5] | GSPT1 GFP/RFP Relative Abundance: 1.050

Item: O=C1CCC(N2C(=O)C=C(Nc3nc[nH]n3)C2=O)C(=O)N1 (stereo not drawn) [Compound 18] | GSPT1 GFP/RFP Relative Abundance: 0.498

Item: CN(C)C(=O)c1cccc(NC2=CC(=O)N(C3CCC(=O)NC3=O)C2=O)c1 (stereo not drawn) [Compound 33] | GSPT1 GFP/RFP Relative Abundance: 0.956

Item: O=C1CCC(N2C(=O)C=C(Nc3ccc(-c4ccccc4)cc3)C2=O)C(=O)N1 (stereo not drawn) [Compound 38] | GSPT1 GFP/RFP Relative Abundance: 0.870

Item: Cc1ccc(NCc2cccc(NC3=CC(=O)N(C4CCC(=O)NC4=O)C3=O)c2)cc1Cl (stereo not drawn) [Compound 63] | GSPT1 GFP/RFP Relative Abundance: 0.844

Item: CCOC(=O)CNC1=CC(=O)N(C2CCC(=O)NC2=O)C1=O (stereo not drawn) [Compound 16] | GSPT1 GFP/RFP Relative Abundance: 1.006

Item: Cc1ccc(NC(=O)OCc2cccc(NC3=CC(=O)N(C4CCC(=O)NC4=O)C3=O)c2)cc1Cl (stereo not drawn) [Compound 48] | GSPT1 GFP/RFP Relative Abundance: 0.579

Item: Cc1ccc(NC(=O)CCc2cccc(NC3=CC(=O)N(C4CCC(=O)NC4=O)C3=O)c2)cc1Cl (stereo not drawn) [Compound 53] | GSPT1 GFP/RFP Relative Abundance: 0.931

Item: O=C1CCC(N2C(=O)C=C(Nc3cccc(CNC(=O)Nc4ccc(Cl)c(Cl)c4)c3)C2=O)C(=O)N1 (stereo not drawn) [Compound 59] | GSPT1 GFP/RFP Relative Abundance: 0.952

Item: O=C1CCC(N2C(=O)C=C(Nc3cccc(Cl)c3)C2=O)C(=O)N1 (stereo not drawn) [Compound 26] | GSPT1 GFP/RFP Relative Abundance: 1.107

Item: O=C1CCC(N2C(=O)C=C(Nc3cnc4ccccc4c3)C2=O)C(=O)N1 (stereo not drawn) [Compound 27] | GSPT1 GFP/RFP Relative Abundance: 0.987

Item: Cc1ccc(NC(=O)NCCCNC2=CC(=O)N(C3CCC(=O)NC3=O)C2=O)cc1Cl (stereo not drawn) [Compound 47] | GSPT1 GFP/RFP Relative Abundance: 0.036

Item: Cc1ccc(NC(=O)NCCc2cccc(NC3=CC(=O)N(C4CCC(=O)NC4=O)C3=O)c2)cc1Cl (stereo not drawn) [Compound 62] | GSPT1 GFP/RFP Relative Abundance: 1.208

Item: Cc1ccc(NC(=O)NCc2cccc(NC3=CC(=O)N(C4CCC(=O)NC4=O)C3=O)c2)cc1C (stereo not drawn) [Compound 58] | GSPT1 GFP/RFP Relative Abundance: 0.594

Item: Cc1ccc(NC(=O)NCCNC2=CC(=O)N(C3CCC(=O)NC3=O)C2=O)cc1Cl (stereo not drawn) [Compound 41] | GSPT1 GFP/RFP Relative Abundance: 0.077

Item: O=C1CCC(N2C(=O)C=C(Nc3cccc(NC(=O)Nc4ccc(Cl)c(Cl)c4)c3)C2=O)C(=O)N1 (stereo not drawn) [Compound 56] | GSPT1 GFP/RFP Relative Abundance: 0.112

Item: O=C1CCC(N2C(=O)C=C(Nc3ccc(-n4ccnc4)cc3)C2=O)C(=O)N1 (stereo not drawn) [Compound 29] | GSPT1 GFP/RFP Relative Abundance: 0.729

Origin of values: patent US12227488B2
